- Tested on: BaF3
- assay.overview: Cytotoxicity against mouse BAF3 cells assessed as reduction in cell proliferation supplemented with fresh medium containing compound for every 2 to 3 days and measured daily
- Assay type: cell-based
pIC50: −log10 of the molar value.

{"columns": ["smiles.input", "pIC50"],
 "data": [
  ["CC(C)(C)c1cc(NC(=O)Cc2ccc(-n3cnc4cc(-c5ccc(S(C)(=O)=O)cc5)ccc43)cc2)no1", "< 7.00"]
]}

---

- Tested on: PC-9
- assay.overview: Cytotoxicity against RET deficient human PC9 cells supplemented with fresh medium containing compound for every 2 to 3 days measured during compound dosing
- Type: functional, cell-based
pIC50: −log10 of the molar value.

{"columns": ["smiles.input", "pIC50"],
 "data": [
  ["CC(C)(C)c1cc(NC(=O)Cc2ccc(-n3cnc4cc(-c5ccc(S(C)(=O)=O)cc5)ccc43)cc2)no1", "< 7.00"]
]}

---

- subject.of.test: Macrophage colony-stimulating factor 1 receptor (Homo sapiens, UniProt P07333)
- Sequence (P07333 whole entry, the tested form may be a part): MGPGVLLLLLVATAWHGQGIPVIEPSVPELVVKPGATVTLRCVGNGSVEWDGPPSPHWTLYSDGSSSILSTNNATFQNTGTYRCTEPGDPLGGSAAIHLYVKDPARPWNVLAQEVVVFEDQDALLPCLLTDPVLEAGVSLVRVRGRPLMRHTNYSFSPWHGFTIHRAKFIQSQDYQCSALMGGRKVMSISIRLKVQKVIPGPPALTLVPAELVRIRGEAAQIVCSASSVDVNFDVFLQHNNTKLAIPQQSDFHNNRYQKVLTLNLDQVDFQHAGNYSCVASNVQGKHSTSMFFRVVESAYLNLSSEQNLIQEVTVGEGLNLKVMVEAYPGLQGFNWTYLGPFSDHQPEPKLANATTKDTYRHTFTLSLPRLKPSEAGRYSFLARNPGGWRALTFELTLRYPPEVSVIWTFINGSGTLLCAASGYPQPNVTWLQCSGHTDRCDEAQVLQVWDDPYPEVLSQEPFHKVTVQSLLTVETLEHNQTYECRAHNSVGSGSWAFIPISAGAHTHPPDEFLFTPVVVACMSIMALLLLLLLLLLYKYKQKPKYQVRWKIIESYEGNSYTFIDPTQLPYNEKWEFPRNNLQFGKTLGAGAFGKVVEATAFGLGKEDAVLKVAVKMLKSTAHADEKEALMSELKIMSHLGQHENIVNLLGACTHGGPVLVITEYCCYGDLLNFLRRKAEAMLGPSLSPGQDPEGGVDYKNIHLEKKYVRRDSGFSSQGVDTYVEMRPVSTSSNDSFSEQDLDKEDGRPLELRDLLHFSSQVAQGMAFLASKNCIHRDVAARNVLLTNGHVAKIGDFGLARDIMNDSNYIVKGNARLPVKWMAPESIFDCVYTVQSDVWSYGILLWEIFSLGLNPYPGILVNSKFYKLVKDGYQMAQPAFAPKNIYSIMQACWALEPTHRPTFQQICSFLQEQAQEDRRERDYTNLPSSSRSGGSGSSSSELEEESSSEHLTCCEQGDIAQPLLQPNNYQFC
- assay.overview: Inhibition of recombinant human His-tagged CSF1R cytoplasmic domain (538 to 910 residues) expressed in baculovirus expression system using peptide substrate preincubated for 60 mins followed by substrate addition by microfluidic assay
pIC50: −log10 of the molar value.

{"columns": ["smiles.input", "pIC50"],
 "data": [
  ["CC(C)(C)c1cc(NC(=O)Cc2ccc(-n3cnc4cc(-c5ccc(S(C)(=O)=O)cc5)ccc43)cc2)no1", 7.34]
]}

---

- Tested on: 8505C
- assay.overview: Cytotoxicity against RET deficient human 8505C cells supplemented with fresh medium containing compound for every 2 to 3 days measured during compound dosing
- Type: functional, cell-based
pIC50: −log10 of the molar value.
metric: pIC50

{"columns": ["smiles.input", "metric", "result"],
 "data": [
  ["CC(C)(C)c1cc(NC(=O)Cc2ccc(-n3cnc4cc(-c5ccc(S(C)(=O)=O)cc5)ccc43)cc2)no1", "pIC50", "< 7.00"]
]}

---

- System: Calu-1
- assay.overview: Cytotoxicity against RET deficient human Calu1 cells supplemented with fresh medium containing compound for every 2 to 3 days measured during compound dosing
- Assay type: functional, cell-based

{"columns": ["smiles.input", "IC50"],
 "data": [
  ["CC(C)(C)c1cc(NC(=O)Cc2ccc(-n3cnc4cc(-c5ccc(S(C)(=O)=O)cc5)ccc43)cc2)no1", "> 100 nM"]
]}

---

- Tested on: A549
- assay.overview: Cytotoxicity against RET deficient human A549 cells supplemented with fresh medium containing compound for every 2 to 3 days measured during compound dosing
- Type: functional, cell-based

{"columns": ["smiles.input", "IC50"],
 "data": [
  ["CC(C)(C)c1cc(NC(=O)Cc2ccc(-n3cnc4cc(-c5ccc(S(C)(=O)=O)cc5)ccc43)cc2)no1", "> 100 nM"]
]}

---

- subject.of.test: Vascular endothelial growth factor receptor 2 (Homo sapiens, UniProt P35968)
- Sequence (P35968 whole entry, the tested form may be a part): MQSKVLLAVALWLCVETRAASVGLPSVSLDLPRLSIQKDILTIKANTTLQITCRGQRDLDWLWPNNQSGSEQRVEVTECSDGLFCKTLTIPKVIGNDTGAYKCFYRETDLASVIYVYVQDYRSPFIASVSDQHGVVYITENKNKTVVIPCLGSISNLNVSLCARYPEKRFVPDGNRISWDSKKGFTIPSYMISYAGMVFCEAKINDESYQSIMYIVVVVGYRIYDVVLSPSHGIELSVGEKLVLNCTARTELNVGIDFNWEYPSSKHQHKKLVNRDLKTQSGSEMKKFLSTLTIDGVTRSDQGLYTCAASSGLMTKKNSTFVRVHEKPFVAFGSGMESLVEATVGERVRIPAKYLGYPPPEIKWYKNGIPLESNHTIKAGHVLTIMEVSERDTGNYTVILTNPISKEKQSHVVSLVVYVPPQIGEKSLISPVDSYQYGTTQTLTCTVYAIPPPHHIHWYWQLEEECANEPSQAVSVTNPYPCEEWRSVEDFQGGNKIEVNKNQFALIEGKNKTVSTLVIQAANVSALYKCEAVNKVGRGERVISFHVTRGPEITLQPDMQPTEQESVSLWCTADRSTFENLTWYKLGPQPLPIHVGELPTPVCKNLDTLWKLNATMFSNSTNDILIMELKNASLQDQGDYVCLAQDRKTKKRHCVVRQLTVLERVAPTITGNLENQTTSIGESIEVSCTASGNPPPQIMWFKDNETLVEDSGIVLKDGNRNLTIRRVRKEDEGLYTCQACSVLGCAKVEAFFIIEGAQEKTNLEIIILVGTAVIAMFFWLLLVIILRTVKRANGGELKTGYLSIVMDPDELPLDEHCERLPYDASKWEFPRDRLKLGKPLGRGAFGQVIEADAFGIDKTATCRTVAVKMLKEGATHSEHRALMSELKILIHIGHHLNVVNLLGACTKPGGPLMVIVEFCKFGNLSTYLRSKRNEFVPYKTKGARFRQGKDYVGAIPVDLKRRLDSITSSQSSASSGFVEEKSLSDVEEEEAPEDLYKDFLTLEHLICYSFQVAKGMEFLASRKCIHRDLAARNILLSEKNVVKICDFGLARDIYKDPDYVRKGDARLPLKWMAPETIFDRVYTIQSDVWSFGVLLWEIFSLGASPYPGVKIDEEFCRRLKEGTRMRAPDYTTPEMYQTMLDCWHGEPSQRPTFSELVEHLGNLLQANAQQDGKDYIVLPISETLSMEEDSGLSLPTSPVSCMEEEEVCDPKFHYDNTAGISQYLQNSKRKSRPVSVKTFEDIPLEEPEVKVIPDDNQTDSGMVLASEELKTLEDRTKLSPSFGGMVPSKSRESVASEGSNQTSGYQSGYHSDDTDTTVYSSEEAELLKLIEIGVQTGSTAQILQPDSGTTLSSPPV
- assay.overview: Inhibition of recombinant human His-tagged VEGFR2 cytoplasmic domain (789 to 1356 residues) expressed in baculovirus expression system using peptide substrate preincubated for 60 mins followed by substrate addition by microfluidic assay

{"columns": ["smiles.input", "IC50 / nM"],
 "data": [
  ["CC(C)(C)c1cc(NC(=O)Cc2ccc(-n3cnc4cc(-c5ccc(S(C)(=O)=O)cc5)ccc43)cc2)no1", 3]
]}

---

- subject.of.test: UniProtKB Q12809
- Sequence (Q12809 whole entry): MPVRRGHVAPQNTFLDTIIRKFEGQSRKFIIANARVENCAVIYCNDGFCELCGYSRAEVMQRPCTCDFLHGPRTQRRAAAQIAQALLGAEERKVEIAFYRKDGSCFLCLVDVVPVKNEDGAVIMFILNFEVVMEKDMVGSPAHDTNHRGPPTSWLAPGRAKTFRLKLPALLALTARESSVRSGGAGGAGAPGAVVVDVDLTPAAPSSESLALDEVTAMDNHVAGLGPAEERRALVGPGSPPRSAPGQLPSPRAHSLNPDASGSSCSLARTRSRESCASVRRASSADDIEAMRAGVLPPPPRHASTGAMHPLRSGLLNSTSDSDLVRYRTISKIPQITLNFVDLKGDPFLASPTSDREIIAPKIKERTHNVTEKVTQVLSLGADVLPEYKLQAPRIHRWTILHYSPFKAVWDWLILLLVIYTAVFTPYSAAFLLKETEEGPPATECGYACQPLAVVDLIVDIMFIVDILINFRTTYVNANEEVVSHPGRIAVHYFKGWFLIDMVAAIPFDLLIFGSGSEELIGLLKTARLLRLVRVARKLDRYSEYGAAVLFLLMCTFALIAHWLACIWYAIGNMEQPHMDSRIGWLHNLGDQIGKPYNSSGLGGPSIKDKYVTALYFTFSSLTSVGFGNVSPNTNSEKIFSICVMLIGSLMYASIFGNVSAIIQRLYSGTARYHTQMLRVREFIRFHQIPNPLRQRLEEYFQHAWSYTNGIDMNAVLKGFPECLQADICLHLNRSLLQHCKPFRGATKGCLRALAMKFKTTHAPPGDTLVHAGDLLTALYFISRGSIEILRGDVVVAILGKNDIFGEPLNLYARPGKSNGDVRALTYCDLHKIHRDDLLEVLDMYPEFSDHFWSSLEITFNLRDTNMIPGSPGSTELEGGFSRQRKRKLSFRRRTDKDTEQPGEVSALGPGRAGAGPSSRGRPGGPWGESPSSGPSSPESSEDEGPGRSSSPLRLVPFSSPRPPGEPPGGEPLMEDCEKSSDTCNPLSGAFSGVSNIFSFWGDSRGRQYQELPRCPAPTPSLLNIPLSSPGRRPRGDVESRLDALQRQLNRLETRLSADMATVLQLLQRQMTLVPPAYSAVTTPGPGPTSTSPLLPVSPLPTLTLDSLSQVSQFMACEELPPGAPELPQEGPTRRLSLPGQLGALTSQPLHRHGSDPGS
- assay.overview: Inhibition of human ERG expressed in HEK293 cells by patch clamp assay
metric: IC50

{"columns": ["smiles.input", "metric", "result"],
 "data": [
  ["CC(C)(C)c1cc(NC(=O)Cc2ccc(-n3cnc4cc(-c5ccc(S(C)(=O)=O)cc5)ccc43)cc2)no1", "IC50", "7.57 µM"]
]}
